ASSAY_EXPLANATION: Solubility of the compound in pH 6.5 FaSSIF at […] measured after 16 hrs by HPLC analysis
Assay type: physicochemical
Overview of reported solubility at 16 h across a group of molecules:
READOUT_TYPE: solubility at 16 h (µg/mL)

1. CNC(=O)c1cc(C(=O)N[C@H]2C[C@@H]2C)cc(Cc2cccc3[nH]ccc23)n1    127
2. CNC(=O)c1cc(C(=O)N[C@H]2[C@@H]3COC[C@@H]32)cc(C(O)c2ccccc2)n1 (stereo not given in full)    473
3. CNC(=O)c1cccc(Cc2ccccc2)n1    258
4. CNC(=O)c1cc(C(=O)NC2CC2)cc([C@H](C)c2ccccc2)n1    182
5. CNC(=O)c1cc(C(=O)N[C@H]2[C@@H]3C[C@H](O)C[C@@H]32)cc([C@@H](C)c2ccccc2)n1    572
6. CNC(=O)c1cc(C(=O)N[C@H]2[C@@H]3COC[C@@H]32)cc(C(OC)c2ccccc2)n1 (stereo not given in full)    575
7. CNC(=O)c1cc(C(=O)NC(C)C)cc(Cc2ccccc2)n1    101
8. CNC(=O)c1cc(C(=O)NC2COC2)cc(Cc2ccccc2)n1    73

---

Overview of reported CLH across a group of molecules:
ASSAY_EXPLANATION: Intrinsic clearance in Wistar Han rat cryopreserved pooled hepatocytes at 0.5 uM measured up to 60 mins by LC-MS/MS analysis
Type: ADME, tissue-based, Hepatocyte
EXPERIMENTAL_PARAMETERS: 1 h
READOUT_TYPE: CLH (mL/min/g)

1) CNC(=O)c1cc(C(=O)N[C@H]2[C@@H]3COC[C@@H]32)cc(C(CC#N)c2ccccc2)n1 (stereo partly drawn)    1.87
2) CNC(=O)c1cc(C(=O)N[C@H]2[C@@H]3COC[C@@H]32)cc([C@@H](C)c2ccccc2)n1    2.03
3) CNC(=O)c1cc(C(=O)N[C@H]2[C@@H]3COC[C@@H]32)cc(C(OC)c2ccccc2)n1 (stereo partly drawn)    1.27
4) CNC(=O)c1cc(C(=O)N[C@H]2[C@@H]3COC[C@@H]32)cc(Cc2ccccc2)n1    1.4
5) CNC(=O)c1cc(C(=O)NCCC[C@H]2OC[C@H](N)CO2)cc(Cc2ccccc2)n1    1.04
6) CNC(=O)c1cc(C(=O)N[C@H]2[C@@H]3COC[C@@H]32)cc(Cc2cccc3[nH]ccc23)n1    2.05

---

ASSAY_EXPLANATION: Intrinsic clearance in Wistar Han rat cryopreserved pooled hepatocytes at 0.5 uM measured up to 60 mins by LC-MS/MS analysis
Assay type: ADME, tissue-based, Hepatocyte
EXPERIMENTAL_PARAMETERS: 1 h
READOUT_TYPE: CLH (mL/min/g)

1. CNC(=O)c1cc(C(=O)N[C@H]2C[C@@H]2C)cc(Cc2cccc3[nH]ccc23)n1    1.06
2. CNC(=O)c1cc(C(=O)NC2CC2)cc(Cc2cccc3c2CCN3)n1.Cl    0.88
3. CNC(=O)c1cc(C(=O)NC2CC2)cc(Cc2ccccc2)n1    5.3

---

ASSAY_EXPLANATION: physchem
EXPERIMENTAL_PARAMETERS: buffer, pH 7.4
READOUT_TYPE: chromatographic logD

1) CNC(=O)c1cc(C(=O)NC2CCOCC2)cc(Cc2ccccc2)n1    3.7
2) CNC(=O)c1cc(C(=O)NC2CC2)cc([C@@H](O)c2ccccc2)n1    2.4
3) CNC(=O)c1cc(C(=O)NC2CC2)cn([C@@H](C)c2ccccc2)c1=O    3.3
4) CNC(=O)c1cc(C(=O)N[C@H]2[C@@H]3COC[C@@H]32)cc(C(CC#N)c2ccccc2)n1 (stereo not given in full)    3.1
5) CNC(=O)c1cc(C(=O)NCCC[C@H]2OC[C@H](N)CO2)cc(Cc2ccccc2)n1    2.8
6) CNC(=O)c1cccc(Cc2ccccc2)n1    4.3
7) CNC(=O)c1cc(C(=O)N[C@H]2[C@@H]3COC[C@@H]32)cc(C(OC)c2ccccc2)n1 (stereo not given in full)    3.4
8) CNC(=O)c1cc(Cc2ccccc2)nc(C(=O)NC)c1    3.1
9) CNC(=O)c1cc(C(=O)N[C@H]2[C@@H]3C[C@@H](O)C[C@@H]32)cc(C(OC)c2ccccc2)n1 (stereo not given in full)    2.9
10) CNC(=O)c1cc(C(=O)NC2COC2)cc(Cc2ccccc2)n1    3.1
11) CNC(=O)c1cc(C(=O)N[C@H]2C[C@@H]2C)cc(Cc2cccc3[nH]ccc23)n1    3
12) CNC(=O)c1cc(C(=O)N[C@H]2C[C@H](O)C2)cc(Cc2ccccc2)n1    2.7
13) CNC(=O)c1cc(C(=O)NC2CC2)cn([C@H](C)c2ccccc2)c1=O    3.5
14) CNC(=O)c1cc(C(=O)N[C@H]2[C@@H]3COC[C@@H]32)cc(Cc2ccccc2)n1    3.5
15) CNC(=O)c1cc(C(=O)N(C)C)cc(Cc2ccccc2)n1    3.3
16) CNC(=O)c1cc(C(=O)N[C@H]2[C@@H]3COC[C@@H]32)cc([C@@H](C)c2ccccc2)n1    4.1
17) CNC(=O)c1cc(C(=O)N[C@H]2C[C@@H]2C)cc([C@@H](CO)c2ccccc2)n1    3.3
18) CNC(=O)c1cc(C(=O)NC2CC2)cc(Cc2cccc3c2CCN3)n1.Cl    3
19) CNC(=O)c1cc(C(=O)NC2CC2)cc([C@H](C)c2ccccc2)n1    4.3
20) CNC(=O)c1cc(C(N)=O)cc(Cc2ccccc2)n1    2.7

---

Overview of reported clearance across a group of molecules:
ASSAY_EXPLANATION: Clearance in Wistar Han rat at 1 mg/kg, iv administered as 1 hr infusion or 3 mg/kg, po administered via gavage by LC-MS/MS analysis
Assay type: ADME, organism-based
EXPERIMENTAL_PARAMETERS: in vivo
READOUT_TYPE: clearance (mL/min/kg)

1) CNC(=O)c1cc(C(=O)NC2CC2)cc(Cc2ccccc2)n1    12
2) CNC(=O)c1cc(C(=O)N[C@H]2C[C@@H]2C)cc(Cc2cccc3[nH]ccc23)n1    18
3) CNC(=O)c1cc(C(=O)NC2CC2)cc(Cc2cccc3c2CCN3)n1.Cl    33
4) CNC(=O)c1cc(C(=O)N[C@H]2[C@@H]3COC[C@@H]32)cc(C(OC)c2ccccc2)n1 (stereo partly specified)    52
5) CNC(=O)c1cc(C(=O)N[C@H]2C[C@@H]2C)cc([C@@H](O)c2ccccc2)n1    29
6) CNC(=O)c1cc(C(=O)N[C@H]2[C@@H]3C[C@@H](O)C[C@@H]32)cc(C(OC)c2ccccc2)n1 (stereo partly specified)    57
7) CNC(=O)c1cc(C(=O)N[C@H]2[C@@H]3COC[C@@H]32)cc(Cc2cccc3[nH]ccc23)n1    39
8) CNC(=O)c1cc(C(=O)N[C@H]2[C@@H]3COC[C@@H]32)cc(C(CC#N)c2ccccc2)n1 (stereo partly specified)    70
9) CNC(=O)c1cc(C(=O)NCCC[C@H]2OC[C@H](N)CO2)cc(Cc2ccccc2)n1    31
10) CNC(=O)c1cc(C(=O)N[C@H]2[C@@H]3COC[C@@H]32)cc([C@@H](C)c2ccccc2)n1    52
11) CNC(=O)c1cc(C(=O)N[C@H]2[C@@H]3COC[C@@H]32)cc(Cc2ccccc2)n1    22

---

Overview of reported Vd across a group of compounds:
ASSAY_EXPLANATION: Volume of distribution at steady state in Wistar Han rat at 1 mg/kg, iv administered as 1 hr infusion or 3 mg/kg, po administered via gavage by LC-MS/MS analysis
Type: ADME, organism-based
EXPERIMENTAL_PARAMETERS: in vivo, read-out: Vdss
READOUT_TYPE: Vd (L/kg)

1. CNC(=O)c1cc(C(=O)NCCC[C@H]2OC[C@H](N)CO2)cc(Cc2ccccc2)n1    0.7
2. CNC(=O)c1cc(C(=O)N[C@H]2C[C@@H]2C)cc([C@@H](O)c2ccccc2)n1    2.2
3. CNC(=O)c1cc(C(=O)N[C@H]2C[C@@H]2C)cc(Cc2cccc3[nH]ccc23)n1    1.2
4. CNC(=O)c1cc(C(=O)N[C@H]2[C@@H]3COC[C@@H]32)cc(Cc2ccccc2)n1    1.7
5. CNC(=O)c1cc(C(=O)N[C@H]2[C@@H]3COC[C@@H]32)cc(C(CC#N)c2ccccc2)n1 (stereo partly specified)    5.9
6. CNC(=O)c1cc(C(=O)N[C@H]2[C@@H]3C[C@@H](O)C[C@@H]32)cc(C(OC)c2ccccc2)n1 (stereo partly specified)    1.8
